assay: Example 1: image storage stability 1 (developed material stored in the dark); conditions: Table 2, 1.6×10^-1 mol/mol-Ag, 24 hours, relative humidity 50%
measured-quantity: Image storage stability-1 (stored in dark, 60°C, 50%) Dmax
Give bare numbers.

Completed entries (count: 3):
Entry "CCCCCCCCN(CCCCCCCC)S(=O)(=O)c1ccc(S(=O)(=O)C(Br)(Br)Br)cc1" : reported Image storage stability-1 (stored in dark, 60°C, 50%) Dmax = ?
2.8

Same lookup for "O=C(c1cccc(S(=O)(=O)C(Br)(Br)Br)c1)N1CCCC1" , please.
2.9

Same lookup for "CCOCCNC(=O)c1cccc(S(=O)(=O)C(Br)(Br)Br)c1" , please.
3.0

Take each entry in turn and give its Image storage stability-1 (stored in dark, 60°C, 50%) Dmax.
1. CCCCOCCCNC(=O)c1cccc(S(=O)(=O)C(Br)(Br)Br)c1
2. CCCCCCCCCCCCCCCCNC(=O)c1cccc(S(=O)(=O)C(Br)(Br)Br)c1
3. CCCC(C)NC(=O)c1cccc(S(=O)(=O)C(Br)(Br)Br)c1 (centres unmarked)
4. CCCCCCCCCCCCN(CCCCCCCCCCCC)C(=O)c1cc(S(C)(=O)=O)ccc1S(=O)(=O)C(Br)(Br)Br
5. CCC(CC)NC(=O)c1cccc(S(=O)(=O)C(Br)(Br)Br)c1

3.0
2.8
3.0
2.8
3.0
